Assay: LNCaP cell loss by flow event count, confirmation, cytotoxicity control for prostate differentiation activator project, single point (AID 1076);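 further: counts scatter-gated live cells after medium removal discards detached dead cells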
Settings: flow cytometry event count, 4 d, event count, at 10 µM, stronger effect = lower value
outcome.measure: cell event count
Give the figure only, with no unit attached.

>>> print(df.to_string())
                                   compound  recorded_measurement
0  Cn1c(=O)cc(SCC(=O)NCCCN2CCN(c3ccccc3F)CC2)c2ccccc21                   210

Entry CC(C)n1c(=S)[nH]c2c1c(=O)[nH]c(=O)n2C : reported cell event count = ? 146

Entry CCc1ccc(NC(=O)NCCN2CCc3ccccc3C2)cc1 : reported cell event count = ? 112

Entry Nc1ccccc1NC(=O)c1ccccc1N : reported cell event count = ? 313

Entry COc1ccc(C(CC(=O)O)NC(=O)Cc2ccccc2)cc1 (stereo unspecified) : reported cell event count = ? 66.5

Entry Cc1ccc(NC(=O)N2CCCN(Cc3ccc(F)cc3)C2)cc1C : reported cell event count = ? 142

* * *

Experiment: LNCaP cell loss by flow event count, confirmation, cytotoxicity control for prostate differentiation activator project, single point (AID 1076);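 further: counts scatter-gated live cells after medium removal discards detached dead cells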
Conditions: flow cytometry event count, 4 d, at 100 µM
The source made the active and inactive calls.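 How the source made its calls: active means cell event count below 40, meaning activity score above 60 where score is 100 minus count; inactive means the rest.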
// one of active, inactive, no free text

Before answering, review these 3 worked examples.
>>> df
                                   compound  answer_label
0  COc1ccc(-c2nc(CN3CCC(C(=O)N4CCc5ccccc54)CC3)c(C)o2)cc1OC      inactive
1  Cc1ccc(C2=Nc3ccccc3NC(C)(c3ccc(C)o3)C2)o1 (stereo unspecified)      inactive
2  O=C(NCCCN1CCN(c2cccc(Cl)c2)CC1)c1ccc(N2CCCC2=O)cc1      inactive

What call does the record list for COc1ccc(N2CCN(CCCNC(=O)CN3CCN(Cc4ccccc4C)C3=O)CC2)cc1 ? inactive

What call does the record list for Cc1cc(C)nc(N2CCC(C(=O)Nc3ccc(Oc4ccccc4)cc3)CC2)n1 ? inactive

What call does the record list for O=C(NCC(c1cccnc1)N1CCOCC1)c1cccc(Cl)c1 (stereo unspecified) ? inactive

* * *

Assay: LNCaP cell loss by flow event count, confirmation, cytotoxicity control for prostate differentiation activator project, single point (AID 1076);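 further: counts scatter-gated live cells after medium removal discards detached dead cells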
Conditions: flow cytometry event count, 4 d, event count, at 10 µM, stronger effect = lower value
Entries and their cell event count values follow.
Give the figure only, with no unit attached.

>>> print(df.to_string())
                                   molecule  recorded_measurement
0  COc1ccc(-c2coc3c(CN4CCCCC4)c(O)c(CN4CCCCC4)c(O)c3c2=O)cc1                    63

Entry O=C(Nc1c(C(=O)N2CCOCC2)cnn1-c1ccccc1)c1ccco1 : reported cell event count = ? 124

Entry Cc1oc(-c2cccc(Cl)c2)nc1CN1CCCC(C(=O)NC(C)c2ccc3c(c2)OCCO3)C1 (configuration not stated) : reported cell event count = ? 136

Entry Cc1nc2ncnn2c(C)c1CCC(=O)NCCCN1CCN(c2cccc(Cl)c2)CC1 : reported cell event count = ? 148

Entry O=C(Cn1cc2c(n1)CCCC2)NCCCN1CCN(c2ccccc2F)CC1 : reported cell event count = ? 102

* * *

Experiment: LNCaP cell loss by flow event count, confirmation, cytotoxicity control for prostate differentiation activator project, single point (AID 1076);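 further: counts scatter-gated live cells after medium removal discards detached dead cells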
Conditions: flow cytometry event count, 4 d, event count, at 10 µM, stronger effect = lower value
Define the label as TRUE when cell event count is strictly less than 200 and as FALSE in all remaining cases.

Before answering, review these 8 worked examples.
                                   compound  answer_label
0  COc1ccc(-c2cc3c(=O)n(CC(=O)NC4CCN(Cc5ccccc5)CC4)ncn3n2)cc1         FALSE
1  CN1CCN(c2oc(COc3ccc(-c4ccccc4)cc3)nc2C#N)CC1          TRUE
2  Cc1ccc(Cn2c(C(=O)NCCCN3CCOCC3)cc3sccc32)cc1         FALSE
3  COc1ccc2c(c1)CCc1c(C(=O)Nc3cc(C)n(Cc4ccc(Cl)cc4)n3)noc1-2         FALSE
4  Cc1ccccc1-c1nc(CN2CCC(C(=O)N3CCC(C(N)=O)CC3)CC2)c(C)o1          TRUE
5  CCc1ccc(-c2nc(CN3CCC(C(=O)NCc4ccco4)CC3)c(C)o2)cc1          TRUE
6  COCCCN(C(=O)Nc1ccccc1)C(C)c1ccncc1 (stereo not given)         FALSE
7  CCCc1cc(-c2n[nH]c(C)c2-c2ccc(C(=O)OCC)o2)c(O)cc1O          TRUE

Now examine the next entry.
State whether 200 exceeds cell event count recorded for CCS(=O)(=O)N1CCC(C(=O)NCCCN2CCN(c3ccccc3F)CC2)CC1 . TRUE
